Test: Pharmacokinetic test in mice (IV and PO)
Type: in vivo, BALB/c mice
Conditions: BALB/c, mouse, plasma; mice, PO 30 mg/kg
# reported AUC(0-inf); entries follow

compound: O=C(N[C@@H]1CCCC[C@H]1N1Cc2ccc(-c3nnc(C(F)F)o3)cc2S1(=O)=O)C(F)F [Compound 2]
AUC(0-inf): 182 µM·h

compound: CC(F)(F)C(=O)N[C@@H]1CCCC[C@H]1N1Cc2ccc(-c3nnc(C(F)F)o3)cc2S1(=O)=O [Compound 1]
AUC(0-inf): 73.1 µM·h

----------
Test: Pharmacokinetic test in mice (IV and PO)
Assay type: in vivo, BALB/c mice
Conditions: BALB/c, mouse, plasma; mice, PO 30 mg/kg; read-out: MRT(0-∞)
# reported MRT inf; entries follow
measurement name: MRT inf (h)

compound structure string: CC(F)(F)C(=O)N[C@@H]1CCCC[C@H]1N1Cc2ccc(-c3nnc(C(F)F)o3)cc2S1(=O)=O
measurement name: MRT inf
unit descriptor: h
recorded measurement: 3.65
--
compound structure string: O=C(N[C@@H]1CCCC[C@H]1N1Cc2ccc(-c3nnc(C(F)F)o3)cc2S1(=O)=O)C(F)F
measurement name: MRT inf
unit descriptor: h
recorded measurement: 3.66

Source of measurements: patent US20250257060A1
